// provenance: patent US5496947A

System: Streptococcus pneumoniae ATCC 6303
Overview of recorded MIC for various molecules
REPORTED_ENDPOINT: MIC (µg/mL)

>>> df
                                   molecule                           tested_on  reported_endpoint  numeric_result
0  CN1CCN(c2c(F)cc3c(=O)c(C(=O)O)cn(-c4ccc(F)cn4)c3c2F)CC1.Cl  Streptococcus pneumoniae ATCC 6303                MIC               5
1  Cl.O=C(O)c1cn(-c2ccc(F)cn2)c2nc(N3CCNCC3)c(F)cc2c1=O  Streptococcus pneumoniae ATCC 6303                MIC               5
2  CN1CCN(c2nc3c(cc2F)c(=O)c(C(=O)O)cn3-c2ccc(F)cn2)CC1.Cl  Streptococcus pneumoniae ATCC 6303                MIC             2.5
3  CC1CN(c2c(F)cc3c(=O)c(C(=O)O)cn(-c4ccc(F)cn4)c3c2F)CC(C)N1.Cl (stereo not shown)  Streptococcus pneumoniae ATCC 6303                MIC               5
4  Cl.O=C(O)c1cn(-c2ccncc2F)c2nc(N3CCNCC3)c(F)cc2c1=O  Streptococcus pneumoniae ATCC 6303                MIC             2.5
5  Cl.N[C@H]1CCN(c2nc3c(cc2F)c(=O)c(C(=O)O)cn3-c2ccncc2F)C1  Streptococcus pneumoniae ATCC 6303                MIC            1.25
6  CN1CCN(c2cc3c(cc2F)c(=O)c(C(=O)O)cn3-c2ccncc2F)CC1.Cl  Streptococcus pneumoniae ATCC 6303                MIC              10
